# ASSAY TARGET: rat α4β2 nAChR subtype (Rattus norvegicus, UniProt P09483+P12390)
# Construct: Preparation of membranes from rat cortex; from tissue; host or cells: rat cerebral cortex membranes
# Sequence (P09483 31-630): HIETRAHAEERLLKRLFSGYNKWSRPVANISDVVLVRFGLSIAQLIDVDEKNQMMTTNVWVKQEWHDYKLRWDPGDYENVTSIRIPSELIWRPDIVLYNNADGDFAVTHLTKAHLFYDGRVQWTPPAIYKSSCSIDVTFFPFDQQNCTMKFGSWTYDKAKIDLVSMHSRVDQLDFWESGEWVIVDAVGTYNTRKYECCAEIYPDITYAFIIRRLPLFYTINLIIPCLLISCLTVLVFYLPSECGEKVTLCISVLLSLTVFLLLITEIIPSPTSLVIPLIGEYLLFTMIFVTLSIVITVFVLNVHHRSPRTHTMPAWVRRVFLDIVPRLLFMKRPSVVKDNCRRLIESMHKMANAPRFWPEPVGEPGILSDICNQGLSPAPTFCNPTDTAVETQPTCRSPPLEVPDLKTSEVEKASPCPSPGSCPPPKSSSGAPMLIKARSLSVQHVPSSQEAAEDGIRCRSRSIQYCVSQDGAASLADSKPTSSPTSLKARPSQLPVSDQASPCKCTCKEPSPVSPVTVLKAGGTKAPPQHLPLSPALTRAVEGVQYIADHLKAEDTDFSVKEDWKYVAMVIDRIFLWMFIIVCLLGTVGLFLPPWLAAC
# Sequence (P12390 25-500): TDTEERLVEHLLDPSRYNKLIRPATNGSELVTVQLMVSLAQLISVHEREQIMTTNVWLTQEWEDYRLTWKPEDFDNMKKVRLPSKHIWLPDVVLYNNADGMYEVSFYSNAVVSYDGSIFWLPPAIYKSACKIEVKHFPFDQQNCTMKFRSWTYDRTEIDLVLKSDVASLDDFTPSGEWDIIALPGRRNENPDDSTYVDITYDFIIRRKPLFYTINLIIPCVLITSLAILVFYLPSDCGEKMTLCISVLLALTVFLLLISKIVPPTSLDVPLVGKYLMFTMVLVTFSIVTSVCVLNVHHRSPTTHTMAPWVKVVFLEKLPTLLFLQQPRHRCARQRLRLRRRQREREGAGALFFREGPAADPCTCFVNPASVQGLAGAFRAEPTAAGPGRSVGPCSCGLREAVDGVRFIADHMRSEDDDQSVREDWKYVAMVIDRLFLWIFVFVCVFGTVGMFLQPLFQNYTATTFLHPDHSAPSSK
# MEASUREMENT NOTES: Radioligand binding ([3H]nicotine) at rat α4β2 nAChR, rat cortex membranes
# TEST CONDITIONS: read-out: Rat α4β2 Ki
# Procedure: Preparation of membranes from rat cortex: Rats (female, Sprague-Dawley), weighing 150-250 g, were maintained on a 12 h light/dark cycle and were allowed free access to water and food supplied by PMI Nutrition International, Inc. Animals were anesthetized with 70% CO2, and then decapitated. Brains were removed and placed on an ice-cold platform. […] Data were expressed as disintegrations per minute (DPMs). […] Ki values were calculated using the Cheng-Prussof equation (1973): […]
MEASURED ENDPOINT: pKi
# pKi: negative log10 of molar concentration; output just the value

Recorded pKi, per entry:
CCOC(=O)N1C[C@H]2CN[C@H](C2)C1 :: 7.96
C/C=C/CC(=O)N1C[C@@H]2CN[C@@H](C2)C1 :: 6.74
O=C([C@H]1C[C@H]1F)N1C[C@H]2CNC[C@@H]1C2 :: 6.77
CCCC(=O)N1C[C@@H]2CN[C@@H](C2)C1 :: 7.74
C=CCNC(=O)N1C[C@@H]2CN[C@@H](C2)C1 :: 6.89

The record that follows has no pKi shown yet.
Data request, read-out pKi, for O=C(C1CC1)N1CC2CNCC1C2 (stereo not drawn)
8.25

* * *

# ASSAY TARGET: human α4β2 nAChR subtype (Homo sapiens, UniProt P17787+P43681)
# Construct: expressed in transfected cells; host or cells: SH-EP1 clonal cells expressing human α4β2
# Sequence (P43681 29-627 limits assumed): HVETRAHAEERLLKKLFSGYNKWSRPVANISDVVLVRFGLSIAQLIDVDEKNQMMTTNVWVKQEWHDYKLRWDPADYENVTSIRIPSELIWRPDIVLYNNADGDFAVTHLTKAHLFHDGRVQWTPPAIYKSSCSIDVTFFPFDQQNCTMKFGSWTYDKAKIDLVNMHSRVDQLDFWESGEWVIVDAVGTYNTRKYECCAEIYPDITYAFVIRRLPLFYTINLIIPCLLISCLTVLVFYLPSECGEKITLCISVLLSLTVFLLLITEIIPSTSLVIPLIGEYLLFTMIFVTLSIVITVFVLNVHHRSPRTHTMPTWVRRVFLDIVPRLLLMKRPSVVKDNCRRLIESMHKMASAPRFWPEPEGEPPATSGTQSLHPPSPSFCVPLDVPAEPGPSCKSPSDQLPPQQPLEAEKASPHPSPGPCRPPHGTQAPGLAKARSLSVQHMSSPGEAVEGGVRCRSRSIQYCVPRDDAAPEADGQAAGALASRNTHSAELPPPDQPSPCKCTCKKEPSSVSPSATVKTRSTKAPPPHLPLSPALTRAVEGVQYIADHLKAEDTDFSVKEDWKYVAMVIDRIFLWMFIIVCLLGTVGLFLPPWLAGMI
# Sequence (P17787 26-502): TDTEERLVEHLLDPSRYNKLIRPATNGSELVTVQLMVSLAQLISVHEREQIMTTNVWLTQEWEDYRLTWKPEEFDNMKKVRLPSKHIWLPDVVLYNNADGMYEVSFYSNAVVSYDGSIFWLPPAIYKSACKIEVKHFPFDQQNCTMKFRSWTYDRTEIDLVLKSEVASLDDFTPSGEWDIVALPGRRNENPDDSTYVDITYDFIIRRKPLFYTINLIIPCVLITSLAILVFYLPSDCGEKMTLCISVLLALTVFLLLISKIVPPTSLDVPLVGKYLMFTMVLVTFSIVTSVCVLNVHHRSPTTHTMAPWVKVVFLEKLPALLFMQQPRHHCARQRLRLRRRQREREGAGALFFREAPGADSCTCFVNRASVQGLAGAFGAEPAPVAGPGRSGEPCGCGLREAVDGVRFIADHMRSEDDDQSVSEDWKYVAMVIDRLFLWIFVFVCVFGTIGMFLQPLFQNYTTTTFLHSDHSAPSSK
# MEASUREMENT NOTES: Radioligand binding ([3H]nicotine) at human α4β2 nAChR, SH-EP1/human α4β2 clonal cell membranes
# TEST CONDITIONS: read-out: Human α4β2 Ki
Quick reference: pKi of the listed items.
API: returns pKi as number; meaning -log10 of concentration in mol/L.

Some compounds with known pKi results, for comparison:
O=C(N1CC2CNC(C2)C1)C(F)(F)F (centres unmarked) :: 5.68
O=C(C1CC1)N1CC2CNC(C2)C1 (centres unmarked) :: 8.82
CCC(=O)N1C[C@@H]2CN[C@@H](C2)C1 :: 7.62
CCOC(=O)N1C[C@@H]2CN[C@@H](C2)C1 :: 7.31

# query: pKi of entry O=C([C@H]1C[C@H]1F)N1C[C@H]2CNC[C@@H]1C2
7.17

Any idea what pKi was measured for O=C(C1CCC1)N1C[C@H]2CNC[C@@H]1C2 ?
6.74

What does the data say about its pKi? Entry: O=C(C1CCC1)N1C[C@@H]2CN[C@@H](C2)C1
7.89

* * *

# ASSAY TARGET: human α4β2 nAChR subtype (Homo sapiens, UniProt P17787+P43681)
# Construct: expressed in transfected cells; host or cells: SH-EP1 clonal cells expressing human α4β2
# MEASUREMENT NOTES: Radioligand binding ([3H]nicotine) at human α4β2 nAChR, SH-EP1/human α4β2 clonal cell membranes
# TEST CONDITIONS: read-out: Human α4β2 Ki
Lab note: class by Ki, see lo (below 20 nM), mid (20 nM to below 50 nM), hi (50 nM or more)

Solved entries (count: 2):
CC(=O)N1C[C@H]2CN[C@H](C2)C1 :: mid
CCS(=O)(=O)N1C[C@@H]2CN[C@@H](C2)C1 :: hi

Which class does CC(C)S(=O)(=O)N1C[C@@H]2CN[C@@H](C2)C1 fall in?
lo

* * *

# ASSAY TARGET: rat α4β2 nAChR subtype (Rattus norvegicus, UniProt P09483+P12390)
# Construct: Preparation of membranes from rat cortex; from tissue; host or cells: rat cerebral cortex membranes
# MEASUREMENT NOTES: Radioligand binding ([3H]nicotine) at rat α4β2 nAChR, rat cortex membranes
# TEST CONDITIONS: read-out: Rat α4β2 Ki
MEASURED ENDPOINT: pKi
To interpret pKi, take it as minus log10 of a concentration measured in moles per litre.

O=C([C@H]1C[C@H]1F)N1C[C@@H]2CNC[C@H]1C2 :: 8.54
CCC(=O)N1C[C@@H]2CN[C@@H](C2)C1 :: 7.52
O=C(C1CCC1)N1C[C@H]2CN[C@H](C2)C1 :: 8.66
CC(C)C(=O)N1C[C@@H]2CN[C@@H](C2)C1 :: 6.42
O=C(C1CC1)N1C[C@@H]2CNC[C@H]1C2 :: 8.15

May I ask what pKi has been recorded for CCNC(=O)N1C[C@@H]2CN[C@@H](C2)C1 ?
6.80

pKi lookup needed for O=C(Nc1ccc(F)cc1)N1C[C@@H]2CN[C@@H](C2)C1 , thanks.
5.66

Entry under review: CC(=O)N1C[C@H]2CN[C@H](C2)C1 . Reported pKi?
7.85

// returns reported pKi for input COC(=O)N1C[C@@H]2CNC[C@H]1C2
7.40

Find the recorded pKi belonging to CCOC(=O)N1C[C@@H]2CN[C@@H](C2)C1 and report it.
7.60

Which pKi value belongs to O=C(C1CCC1)N1C[C@@H]2CN[C@@H](C2)C1 ?
7.85

Which pKi value is on record for O=C(CCF)N1C[C@@H]2CN[C@@H](C2)C1 ?
7.51

Sample COC(=O)N1CC2CNC(C2)C1 (centres unmarked) — what was its pKi?
8.17

Look up pKi: COc1ccc(S(=O)(=O)N2C[C@@H]3CN[C@@H](C3)C2)cc1
6.12

* * *

# ASSAY TARGET: rat α7 nAChR subtype (Rattus norvegicus, UniProt Q05941)
# Construct: Preparation of membranes from rat hippocampus; from tissue; host or cells: rat hippocampus membranes
# Sequence (Q05941 23-502): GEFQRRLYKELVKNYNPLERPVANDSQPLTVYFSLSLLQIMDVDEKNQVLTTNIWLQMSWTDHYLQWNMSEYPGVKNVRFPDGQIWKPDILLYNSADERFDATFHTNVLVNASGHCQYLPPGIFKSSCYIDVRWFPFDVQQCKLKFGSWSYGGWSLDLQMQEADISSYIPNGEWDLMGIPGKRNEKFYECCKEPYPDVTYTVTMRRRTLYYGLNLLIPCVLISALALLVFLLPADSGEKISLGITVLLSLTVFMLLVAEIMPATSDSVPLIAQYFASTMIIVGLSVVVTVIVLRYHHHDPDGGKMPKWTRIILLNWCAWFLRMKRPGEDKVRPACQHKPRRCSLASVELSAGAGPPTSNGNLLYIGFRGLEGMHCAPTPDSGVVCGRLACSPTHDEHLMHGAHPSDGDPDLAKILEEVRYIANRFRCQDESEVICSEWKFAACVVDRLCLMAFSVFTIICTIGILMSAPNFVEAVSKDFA
# MEASUREMENT NOTES: Radioligand binding ([3H]MLA) at α7 nAChR, rat hippocampus membranes
MEASURED ENDPOINT: pKi
Note: pKi values are expressed as the negative base-10 logarithm of concentration in M.

CCOC(=O)N1C[C@H]2CN[C@H](C2)C1 :: 5.38
O=C(C1CC1)N1C[C@@H]2CN[C@@H](C2)C1 :: 7.01
CCCC(=O)N1C[C@@H]2CN[C@@H](C2)C1 :: 6.80
O=C(C1CC=CC1)N1C[C@@H]2CN[C@@H](C2)C1 :: 7.54
O=C(C1CCC1)N1C[C@@H]2CN[C@@H](C2)C1 :: 6.43
CCC(=O)N1C[C@@H]2CN[C@@H](C2)C1 :: 5.70
O=C(C1CC1)C1N[C@H]2CNC[C@@H]1C2 (stereo partly drawn) :: 5.89
O=C(C1C[C@H]1F)N1CC2CNC(C2)C1 (stereo partly drawn) :: 6.20

Endpoint output: pKi of CC1CC1C(=O)N1C[C@@H]2CN[C@@H](C2)C1 (stereo partly drawn) . Value?
6.34

// returns reported pKi for input O=C(C1CCC1)N1C[C@H]2CNC[C@@H]1C2
5.82

* * *

Parameter pKi: see the listing below.
# ASSAY TARGET: rat α4β2 nAChR subtype (Rattus norvegicus, UniProt P09483+P12390)
# Construct: Preparation of membranes from rat cortex; from tissue; host or cells: rat cerebral cortex membranes
# MEASUREMENT NOTES: Radioligand binding ([3H]nicotine) at rat α4β2 nAChR, rat cortex membranes
# TEST CONDITIONS: read-out: Rat α4β2 Ki
Schema: pKi number; meaning minus log10 of the concentration expressed in molar units.

O=C(N1CC2CNC(C2)C1)C(F)(F)F (stereo not drawn) :: 5.62
CC(C)CC(=O)N1C[C@@H]2CN[C@@H](C2)C1 :: 6.49
CC1CC1C(=O)N1C[C@@H]2CN[C@@H](C2)C1 (stereo partly drawn) :: 8.32
O=C(C1CC1(F)F)N1C[C@@H]2CN[C@@H](C2)C1 (stereo partly drawn) :: 7.96
O=C(C1CC1)N1CC2CNC(C2)C1 (stereo not drawn) :: 8.89
O=C(C1CC=CC1)N1C[C@H]2CN[C@H](C2)C1 :: 8.26
CCOC(=O)N1C[C@@H]2CNC[C@H]1C2 :: 7.49
CCCOC(=O)N1C[C@@H]2CN[C@@H](C2)C1 :: 7.37
COC(=O)N1C[C@@H]2CN[C@@H](C2)C1 :: 7.00
CC(C)OC(=O)N1C[C@H]2CN[C@H](C2)C1 :: 7.62

// lookup pKi for CCCCC(=O)N1C[C@@H]2CN[C@@H](C2)C1
7.44

Which measured pKi value corresponds to O=C(C1C[C@H]1F)N1CC2CNC(C2)C1 (stereo partly drawn) ?
7.68

// query pKi value for entry O=C(C1C[C@@H]1F)N1CC2CNC(C2)C1 (stereo partly drawn)
7.66

// lookup pKi for COCCOC(=O)N1C[C@H]2CN[C@H](C2)C1
7.13

What value of pKi has been reported for the following molecule? COC(=O)N1C[C@H]2CN[C@H](C2)C1
8.32
